MIC values for the compounds below.
System: Staphylococcus aureus
Assay: Antibacterial activity against Staphylococcus aureus after 24 hrs by MTT assay
Format: functional
The reply should contain only the number, in µg/mL.

Entry under review: Oc1ccc(Br)cc1CNc1ccccc1Cl . Reported MIC?
6.25

// repeat for O=C(Nc1ccccc1)N(Cc1cc(Br)ccc1O)c1ccc(Cl)cc1 and report
1.56

Ok, now Oc1ccc(Br)cc1CNc1ccc(F)cc1
12.5

What do you get for COc1ccc(N(Cc2cc(Br)ccc2O)C(=O)Nc2ccccc2)cc1 ?
12.5

* * *

Assay: Toxicity in erythrocytes assessed as hemolytic activity
Assay type: cell-based
Settings: erythrocyte
In this section we review reported LC30 values for a set of compounds.

# input compound: O=C(Nc1ccccc1)N(Cc1cc(Br)ccc1O)c1ccccc1Cl ; wanted: its LC30
> 10000 µg/mL

What about this compound? O=C(Nc1ccccc1)N(Cc1cc(Br)ccc1O)c1ccc(Br)cc1
> 10000 µg/mL

Another compound: Nc1ccn([C@H]2CC[C@@H](COP(=O)(O)O)O2)c(=O)n1
> 10000 µg/mL

Follow-up item: O=C(Nc1ccccc1)N(Cc1cc(Br)ccc1O)c1ccc(F)cc1
> 10000 µg/mL
